Tested Target: T1, 4H570-AA
T1 chain: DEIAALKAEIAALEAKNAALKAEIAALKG
Assay Overview: two-hybrid library CCmax;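 further: natural log of median RNA to DNA barcode read ratio; higher means stronger binding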
Study Conditions: mean of both orientations
Attribute Measured: interaction score

{"columns": ["Binder", "Numeric Value"],
 "data": [
  ["DENAALKAEIAALEAKNAALKAKIAALEG [4H1597-AA]", -1.39],
  ["DKNAALEAEIAALKAENAALKAKIAALEG [4H3165-AA]", -1.57]
]}

A = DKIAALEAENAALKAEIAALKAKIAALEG [4H2253-AA]
B = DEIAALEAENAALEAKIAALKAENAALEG [4H171-AA]
Query string: // max by interaction score over [ A , B ] // respond with label for picked entry
Result string: B
